pIC50: −log10 of the molar value.
Let's go through some pIC50 measurements on MMP3 (Homo sapiens) together.
Sequence (P08254 100-477, species assumed): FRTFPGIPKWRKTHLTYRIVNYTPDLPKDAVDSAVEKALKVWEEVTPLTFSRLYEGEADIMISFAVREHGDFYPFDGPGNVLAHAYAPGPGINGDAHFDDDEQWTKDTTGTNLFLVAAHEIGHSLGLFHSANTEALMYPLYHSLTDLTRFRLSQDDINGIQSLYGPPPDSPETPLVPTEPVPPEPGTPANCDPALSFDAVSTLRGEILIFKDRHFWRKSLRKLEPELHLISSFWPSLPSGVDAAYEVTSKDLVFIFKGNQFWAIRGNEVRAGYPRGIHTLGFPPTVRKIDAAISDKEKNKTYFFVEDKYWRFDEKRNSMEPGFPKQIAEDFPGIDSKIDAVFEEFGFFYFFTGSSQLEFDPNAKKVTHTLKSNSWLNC

compound	test target	result
O=[N+]([O-])c1ccc(CN2CCC3(CCc4ccccc43)CC2)o1	MMP3 (Homo sapiens)	4.77
O=C(CSc1nnc(NC(=O)COc2ccccc2)s1)NO	MMP3 (Homo sapiens)	< 4.77
O=C(CCN(Cc1cccs1)S(=O)(=O)c1ccc([N+](=O)[O-])cc1)NO	MMP3 (Homo sapiens)	< 4.77
CSc1nnc2c(n1)OC(c1ccc([N+](=O)[O-])o1)Nc1ccccc1-2 (stereo not shown)	MMP3 (Homo sapiens)	4.82
O=C(CSc1nnc(NC(=O)c2ccccc2)s1)NO	MMP3 (Homo sapiens)	< 4.77

Q) # query: pIC50 | item `COc1ccc(-n2c(CSc3ncccn3)nnc2SCC(=O)NO)cc1` | system: MMP3 (Homo sapiens)
A) < 4.77

Q) Identify the measured pIC50 of `COc1cc(OC)cc(C(=O)CNc2nnc(SCC(=O)NO)s2)c1` for MMP3 (Homo sapiens).
A) < 4.77

Q) Checklist item: pIC50 tested on MMP3 (Homo sapiens), entry `O=C(COc1ccc(Cl)cc1Cl)NO` , value?
A) < 4.77

Q) Give MMP3 (Homo sapiens) pIC50 for `O=C(c1ccc(C(=O)O)c([N+](=O)[O-])c1)c1ccc(C(=O)O)c([N+](=O)[O-])c1`
A) < 4.77

Q) // map `O=C(CCN(Cc1ccccc1)S(=O)(=O)c1ccc(F)cc1)NO` to recorded pIC50 (system: MMP3 (Homo sapiens))
A) < 4.77
